Cited source for all entries: ChEMBL document CHEMBL1130668

Test system: MCF7
test.method.notes: Effect on microtubule assembly in MCF-7 cells, compared to paclitaxel (0.3 uM), given as ratio of respective ED50
Format: functional, Homo sapiens
Here the recorded Ratio is given for each entry.
API note: the answer field is a bare number with no unit suffix.

CC(=O)O[C@H]1C(=O)[C@]2(C)[C@@H](OC(=O)c3ccc([N+](=O)[O-])o3)C[C@H]3OC[C@@]3(OC(C)=O)[C@H]2[C@H](OC(=O)c2ccccc2)[C@]2(O)C[C@H](OC(=O)[C@H](O)[C@@H](NC(=O)c3ccccc3)c3ccccc3)C(C)=C1C2(C)C :: 8.7

Item: CC(=O)O[C@H]1C(=O)[C@]2(C)[C@@H](OC(=O)CCCNC(=O)OC(C)(C)C)C[C@H]3OC[C@@]3(OC(C)=O)[C@H]2[C@H](OC(=O)c2ccccc2)[C@]2(O)C[C@H](OC(=O)[C@H](O)[C@@H](NC(=O)c3ccccc3)c3ccccc3)C(C)=C1C2(C)C | Ratio: 0.7

Item: CC(=O)O[C@H]1C(=O)[C@]2(C)[C@@H](OC(=O)c3ccc4ccccc4c3)C[C@H]3OC[C@@]3(OC(C)=O)[C@H]2[C@H](OC(=O)c2ccccc2)[C@]2(O)C[C@H](OC(=O)[C@H](O)[C@@H](NC(=O)c3ccccc3)c3ccccc3)C(C)=C1C2(C)C | Ratio: 60
